Molecular target: T1, HLA-B*08:01 (human)
T1 construct: MHC monomer first loaded with a UV-sensitive peptide that is cleaved by UV light and exchanged for the test peptide
Assay: UV peptide exchange ELISA
For each record, write down the corresponding peptide exchange yield.

Look up peptide exchange yield of MRSSYIREL [MRSSYIREL (SEQ ID NO: 150)] and report it.
20 to 50%

Respond only with peptide exchange yield recorded for SRFPGMSVL [SRFPGMSVL (SEQ ID NO: 227)]
20 to 50%

Respond only with peptide exchange yield recorded for YELNNLHAL [YELNNLHAL (SEQ ID NO: 169)]
20 to 50%

Give recorded peptide exchange yield. TPEPSVHAL [TPEPSVHAL (SEQ ID NO: 247)]
20 to 50%

Supply measured peptide exchange yield of YARLKNVLL [YARLKNVLL (SEQ ID NO: 75)] in your reply.
50 to 75%

# return recorded peptide exchange yield for entry MLLCLSLEL [MLLCLSLEL (SEQ ID NO: 88)]
20 to 50%

Using known records, supply peptide exchange yield for DLKKLVDSL [DLKKLVDSL (SEQ ID NO: 43)]
50 to 75%

Provide measured peptide exchange yield value, entry: NLLMRNVL [NLLMRNVL (SEQ ID NO: 65)]
20 to 50%

Return value of peptide exchange yield for input LPYPPQKVV [LPYPPQKVV (SEQ ID NO: 224)] , no commentary.
20 to 50%

Supply measured peptide exchange yield of YVSKPGAQL [YVSKPGAQL (SEQ ID NO: 183)] in your reply.
20 to 50%

Return peptide exchange yield (reported value) for this binder: MFPARGVPL [MFPARGVPL (SEQ ID NO: 73)]
20 to 50%

Fill in reported peptide exchange yield for this entry: LGGLRLTAL [LGGLRLTAL (SEQ ID NO: 193)]
20 to 50%

Find the measured peptide exchange yield of DAPRHRLL [DAPRHRLL (SEQ ID NO: 214)] and report it.
20 to 50%

Look up peptide exchange yield of YKAYPSQL [YKAYPSQL (SEQ ID NO: 197)] and report it.
20 to 50%

State, in one line, measured peptide exchange yield of MPLKHYLL [MPLKHYLL (SEQ ID NO: 57)]
20 to 50%

Find the measured peptide exchange yield of MLHIKKAEV [MLHIKKAEV (SEQ ID NO: 60)] and report it.
50 to 75%

Specify measured peptide exchange yield for DVSARKLRV [DVSARKLRV (SEQ ID NO: 223)] .
20 to 50%

Answer with the recorded peptide exchange yield for the binder listed here: ESSAQPTAL [ESSAQPTAL (SEQ ID NO: 122)]
20 to 50%

Respond only with peptide exchange yield recorded for QNSLRHNL [QNSLRHNL (SEQ ID NO: 165)]
20 to 50%

Please list peptide exchange yield recorded for the binder DVKLVFVM [DVKLVFVM (SEQ ID NO: 233)]
20 to 50%

Consider the binder EVYQKIIL [EVYQKIIL (SEQ ID NO: 38)] and give its recorded peptide exchange yield.
50 to 75%

Identify measured peptide exchange yield corresponding to VQWKPPAL [VQWKPPAL (SEQ ID NO: 137)]
20 to 50%

Given the binder ILKRFLAC [ILKRFLAC (SEQ ID NO: 20)] , write its reported peptide exchange yield.
50 to 75%

Identify peptide exchange yield associated with the binder YGRIGISLF [YGRIGISLF (SEQ ID NO: 139)]
20 to 50%

For RLLQKSKEL [RLLQKSKEL (SEQ ID NO: 246)] , write its peptide exchange yield.
20 to 50%

Answer with the recorded peptide exchange yield of EPVIRTVSI [EPVIRTVSI (SEQ ID NO: 127)] only.
50 to 75%

Provide peptide exchange yield value for the following binder: RSYYHPTNL [RSYYHPTNL (SEQ ID NO: 108)]
20 to 50%

Return peptide exchange yield (reported value) for this binder: VLKTLQEL [VLKTLQEL (SEQ ID NO: 154)]
20 to 50%
